Values of pKd reported for ATP-dependent translocase ABCB1 (Mus musculus) appear below.
pKd: −log10 of the molar value.
value.type: pKd

1) O=c1c(O)c(-c2ccc(O)cc2)oc2cc(O)cc(O)c12: 5.17
2) O=c1c(O)c(-c2ccc(C(c3ccccc3)c3ccccc3)cc2)oc2cc(O)cc(O)c12: 5.70
3) COc1ccc(-c2oc3cc(O)cc(O)c3c(=O)c2O)cc1 [KAEMPFERIDE]: 5.30

====

target: ATP-dependent translocase ABCB1 (Mus musculus, UniProt P21447); test: Percent of maximal quenching fluorescence for binding analysis to nucleotide-binding domain (NBD2) of P-Glycoprotein was determined
Sequence (P21447 whole entry, the tested form may be a part): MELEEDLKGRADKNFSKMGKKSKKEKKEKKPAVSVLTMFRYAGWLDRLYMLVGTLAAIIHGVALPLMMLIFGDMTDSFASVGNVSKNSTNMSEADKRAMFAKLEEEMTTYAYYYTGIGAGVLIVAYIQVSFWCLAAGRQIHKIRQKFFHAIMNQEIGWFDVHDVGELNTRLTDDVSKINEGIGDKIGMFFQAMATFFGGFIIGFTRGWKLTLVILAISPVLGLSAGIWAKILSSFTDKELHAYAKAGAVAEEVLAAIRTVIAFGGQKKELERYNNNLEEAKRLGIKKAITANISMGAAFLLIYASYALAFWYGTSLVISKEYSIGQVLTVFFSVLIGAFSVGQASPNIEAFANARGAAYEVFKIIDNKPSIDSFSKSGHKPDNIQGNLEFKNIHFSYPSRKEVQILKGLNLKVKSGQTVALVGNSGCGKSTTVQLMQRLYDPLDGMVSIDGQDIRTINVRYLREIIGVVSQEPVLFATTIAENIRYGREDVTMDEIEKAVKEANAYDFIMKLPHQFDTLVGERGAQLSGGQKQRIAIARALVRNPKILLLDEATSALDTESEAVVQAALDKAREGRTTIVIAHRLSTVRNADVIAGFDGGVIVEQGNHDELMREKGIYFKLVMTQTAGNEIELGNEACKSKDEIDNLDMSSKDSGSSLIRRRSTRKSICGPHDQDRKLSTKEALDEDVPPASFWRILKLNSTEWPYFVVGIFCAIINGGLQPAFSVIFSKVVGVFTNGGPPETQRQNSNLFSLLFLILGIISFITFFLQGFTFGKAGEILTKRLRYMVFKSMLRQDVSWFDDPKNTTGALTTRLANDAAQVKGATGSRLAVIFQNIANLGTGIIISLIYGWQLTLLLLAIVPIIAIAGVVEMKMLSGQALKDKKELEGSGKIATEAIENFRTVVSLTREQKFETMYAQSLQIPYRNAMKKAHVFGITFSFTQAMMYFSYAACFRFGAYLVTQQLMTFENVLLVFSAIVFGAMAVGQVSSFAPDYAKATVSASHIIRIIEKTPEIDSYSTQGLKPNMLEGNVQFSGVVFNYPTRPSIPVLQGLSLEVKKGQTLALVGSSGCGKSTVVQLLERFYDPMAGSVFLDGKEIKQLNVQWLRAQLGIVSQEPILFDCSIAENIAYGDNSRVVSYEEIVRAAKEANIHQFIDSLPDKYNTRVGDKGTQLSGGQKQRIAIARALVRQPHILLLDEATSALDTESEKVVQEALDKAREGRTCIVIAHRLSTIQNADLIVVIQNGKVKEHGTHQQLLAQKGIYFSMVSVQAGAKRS
Examples of molecules with documented Delta Fmax follow.
value.type: Delta Fmax (%)

1) O=c1c(O)c(-c2ccc(C(c3ccccc3)c3ccccc3)cc2)oc2cc(O)cc(O)c12: 84.6
2) O=c1c(O)c(-c2ccc(O)cc2)oc2cc(O)cc(O)c12: 97.6
3) COc1ccc(-c2oc3cc(O)cc(O)c3c(=O)c2O)cc1 [KAEMPFERIDE]: 96.7
4) O=c1c(O)c(-c2ccc(Cl)cc2Cl)oc2cc(O)cc(O)c12: 85.3
5) O=c1c(O)c(-c2ccccc2)oc2cc(O)cc(O)c12: 95
6) O=c1c(O)c(-c2ccc(I)cc2)oc2cc(O)cc(O)c12: 95.5
7) O=c1c(O)c(-c2ccc(F)cc2)oc2cc(O)cc(O)c12: 91.6
8) CCCCCCCCc1ccc(-c2oc3cc(O)cc(O)c3c(=O)c2O)cc1: 62.1
